ASSAY_COMMENT: PK profile of HBI-2375 in plasma and brain in C57BL/6J mice
Format: in vivo
CONDITION_DETAILS: both sexes, mouse; C57BL/6J mice, single PO 40 mg/kg, plasma
EXPERIMENTAL_READOUT: Tmax (min)
Provide only the numeric value, understood in min.

# compound Cc1c(F)c(N)cc(C(=O)Nc2cc(-n3cc(C(=O)N4CCN(C)CC4)nn3)c(F)cc2N2C[C@@H](C)N(C)[C@@H](C)C2)c1Cl ; its Tmax = 30

###

ASSAY_COMMENT: PK profile of HBI-2375 in plasma and brain in C57BL/6J mice
Type: in vivo
CONDITION_DETAILS: both sexes, mouse; C57BL/6J mice, single PO 80 mg/kg, plasma, mean
EXPERIMENTAL_READOUT: MRT last (h)
The reply should contain only the number, in h.

Query Cc1c(F)c(N)cc(C(=O)Nc2cc(-n3cc(C(=O)N4CCN(C)CC4)nn3)c(F)cc2N2C[C@@H](C)N(C)[C@@H](C)C2)c1Cl yields MRT last of 5.16

###

ASSAY_COMMENT: PK profile of HBI-2375 in plasma, brain and CSF in SD rats
Format: in vivo
CONDITION_DETAILS: female, Sprague-Dawley, rat, brain/plasma, po, 40 mg/kg, SD rats, 40 mg/kg PO, brain/plasma, female; read-out: AUClast Ratio Tissue/Plasma
EXPERIMENTAL_READOUT: Kp
Hey, just send me the number, nothing else.

The measured Kp associated with Cc1c(F)c(N)cc(C(=O)Nc2cc(-n3cc(C(=O)N4CCN(C)CC4)nn3)c(F)cc2N2C[C@@H](C)N(C)[C@@H](C)C2)c1Cl reads 0.928

###

ASSAY_COMMENT: PK profile of HBI-2375 in plasma, brain and CSF in SD rats
Format: in vivo
CONDITION_DETAILS: Sprague-Dawley, rat; SD rats, single PO 40 mg/kg, CSF, female
Method: EXAMPLE 3: PK profile of HBI-2375 (compound of Formula (IIIb) (HYBI-084) in plasma, brain, and cerebrospinal fluid (CSF) in SD rats: This study was conducted in accordance with the Study Protocol and Pharmaron (Ningbo) TSP's Standard Operating Procedures (SOPs) following all regulatory protocols. This study was conducted under non-GLP environment. The maximal concentrations of HBI-2375 in CSF for males and females were at 1 hr post-dose. […]
EXPERIMENTAL_READOUT: MRT last (h)
Write it as a number; the unit h goes unstated.

So, Cc1c(F)c(N)cc(C(=O)Nc2cc(-n3cc(C(=O)N4CCN(C)CC4)nn3)c(F)cc2N2C[C@@H](C)N(C)[C@@H](C)C2)c1Cl ? Its MRT last was 8.41

###

ASSAY_COMMENT: WBS (whole blood stability) assay
Type: in vitro ADME
CONDITION_DETAILS: Human whole blood, 2 μM, 37° C.
EXPERIMENTAL_READOUT: % Remaining after 60 min incubation
Could you give the number and then its unit, please?

Some entries whose results are on file:
INSERT INTO measurements (line_notation, experimental_readout, readout_value) VALUES
  ('CCN(CC)C(=O)c1cn(-c2cc(NC(=O)c3cc(N)c(F)c(C)c3Cl)c(N3C[C@@H](C)N(C)[C@@H](C)C3)cc2F)nn1', '% Remaining after 60 min incubation', '100%'),
  ('Cc1c(F)c(N)cc(C(=O)Nc2cc(-n3cc(C(=O)N4CCN(C)CC4)nn3)c(F)cc2N2C[C@@H](C)N(C)[C@@H](C)C2)c1Cl', '% Remaining after 60 min incubation', '110%'),
  ('C[C@@H]1CN(c2ncc(-c3cc(Nc4ncnc(Cl)c4N)c(N4CCN(C)[C@@H](C)C4)cc3F)cn2)C[C@H](C)O1', '% Remaining after 60 min incubation', '103%');

Record C[C@H]1CN(c2cc(F)c(-c3cnc(N4CCOCC4)nc3)cc2Nc2ncnc(Cl)c2N)CCN1C , field % Remaining after 60 min incubation: 103%

The origin of these recorded values is patent US20230293539A1.
